experiment: Half life in human hepatocytes by LC-MS/MS analysis
Assay type: ADME, cell-based, Hepatocyte
outcome_measure: half-life

Request: What measured half-life goes with `CC(=O)Nc1cccc(Nc2nc(Nc3ccc(N4CCN(C)CC4)cn3)ncc2Cl)c1` ?
Result: 1.53 h

###

experiment: Clearance in Sprague-Dawley rat at 10 mg/kg, po by LC-MS/MS analysis
Format: ADME, organism-based
recorded_conditions: in vivo
outcome_measure: CL/F (mL/min/kg)
Please state the figure in mL/min/kg; there is no need to write the unit.

Request: What measured CL/F goes with `CC(=O)Nc1cccc(Nc2nc(Nc3ccc(N4CCN(C)CC4)cn3)ncc2Cl)c1` ?
Result: 180

###

A collection of compounds and their measured GI50
Tested on: MCF7
experiment: Antiproliferative activity against human MCF7 cells assessed as inhibition of cell proliferation measured after 48 hrs by CCK8 assay
Type: functional, cell-based
recorded_conditions: MCF7, 48 h
Just the number please, in µM, no unit attached.

Consider the reported GI50 for these compounds:
Request: Quick one: GI50 of `Cc1ccccc1Nc1nc(Nc2ccc(N3CCN(C(=O)OC(C)(C)C)CC3)cc2)ncc1Cl` ?
Result: 2.25

Request: Please look up its GI50: `Cc1cc(C)c(Nc2nc(Nc3ccc(N4CCN(C)CC4)cn3)ncc2Cl)c(C)c1`
Result: 9.47

Switching to the query record.
Request: Entry `CCc1ccc(Nc2nc(Nc3ccc(N4CCN(C)CC4)cn3)ncc2Cl)cc1` : reported GI50 = ?
Result: 8.23

###

experimental_target: CDK9/Cyclin K (Homo sapiens, UniProt P50750)
Sequence (P50750 whole entry): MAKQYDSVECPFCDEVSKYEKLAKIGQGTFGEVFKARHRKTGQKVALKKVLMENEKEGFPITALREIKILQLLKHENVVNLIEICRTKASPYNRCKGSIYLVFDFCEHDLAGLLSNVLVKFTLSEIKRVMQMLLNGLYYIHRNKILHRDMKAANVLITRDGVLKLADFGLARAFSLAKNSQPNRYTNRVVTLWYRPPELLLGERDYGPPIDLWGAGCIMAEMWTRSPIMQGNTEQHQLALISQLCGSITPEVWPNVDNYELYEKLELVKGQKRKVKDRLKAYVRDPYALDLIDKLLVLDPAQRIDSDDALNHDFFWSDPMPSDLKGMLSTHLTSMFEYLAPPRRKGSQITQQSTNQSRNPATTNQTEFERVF
Sequence (O75909 whole entry, further chain): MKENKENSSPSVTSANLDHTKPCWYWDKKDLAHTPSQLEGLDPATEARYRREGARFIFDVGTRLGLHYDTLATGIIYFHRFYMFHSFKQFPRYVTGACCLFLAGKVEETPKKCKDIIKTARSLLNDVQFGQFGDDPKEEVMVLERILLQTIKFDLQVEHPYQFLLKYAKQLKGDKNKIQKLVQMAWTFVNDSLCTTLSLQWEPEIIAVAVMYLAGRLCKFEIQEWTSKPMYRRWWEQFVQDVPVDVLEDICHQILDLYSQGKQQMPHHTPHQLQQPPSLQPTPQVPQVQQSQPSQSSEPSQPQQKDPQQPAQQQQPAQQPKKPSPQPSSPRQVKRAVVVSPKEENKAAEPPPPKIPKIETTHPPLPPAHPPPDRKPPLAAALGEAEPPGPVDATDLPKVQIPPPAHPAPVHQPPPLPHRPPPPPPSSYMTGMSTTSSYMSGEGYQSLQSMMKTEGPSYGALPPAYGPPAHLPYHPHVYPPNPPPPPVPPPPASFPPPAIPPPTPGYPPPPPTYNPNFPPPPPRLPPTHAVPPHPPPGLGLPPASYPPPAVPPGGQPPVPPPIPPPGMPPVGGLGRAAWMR
experiment: biochemical
outcome_measure: IC50

Example entries and their recorded answers appear below.
Request: GET /values?readout=IC50&item= `CN1CCN(c2ccc(Nc3ncc(Cl)c(Nc4ccccc4)n3)nc2)CC1`
Result: 9.85 µM

Request: // query IC50 value for entry `COc1cccc(Nc2nc(Nc3ccc(N4CCN(C)CC4)cn3)ncc2Cl)c1`
Result: 6.2 µM

Request: I'd like to know its IC50. The compound in question is `Cc1ccccc1Nc1nc(NCCc2ccccc2)ncc1Cl`
Result: > 10 µM

Further cases:
Request: Item `Cc1ccccc1Nc1nc(NCCc2cccnc2)ncc1Cl` has what recorded IC50?
Result: > 10 µM

Request: Give its IC50 value. Item: `Cc1ccccc1Nc1nc(Nc2ccc(N3CCN(C)CC3)cn2)ncc1Cl`
Result: 0.152 µM

Request: Name the reported IC50 value associated with the compound `Cc1ccccc1Nc1nc(Nc2ccc(N3CCOCC3)cc2)ncc1Cl`
Result: 1.12 µM

Request: Data request, read-out IC50, for `Cc1ccccc1Nc1nc(NCCc2ccccn2)ncc1Cl`
Result: > 10 µM

Request: Using the record for `Cc1ccc(CNc2nc(Nc3ccc(N4CCN(C)CC4)cn3)ncc2Cl)cc1` , report its IC50.
Result: > 10 µM

Request: Dear colleague, I am looking for the recorded IC50 of the following compound: `Cc1ccccc1Nc1nc(NCc2ccccc2)ncc1Cl`
Result: > 10 µM

Request: Could you tell me which IC50 is on file for `Cc1ccccc1Nc1nc(Nc2ccccc2)ncc1Cl` ?
Result: > 10 µM

Request: Which IC50 reading was recorded for the compound `Cc1ccccc1Nc1nc(NCc2ccco2)ncc1Cl` ?
Result: > 10 µM

Request: Any idea what its IC50 is? The compound is `CN1CCN(c2ccc(Nc3ncc(Cl)c(NCCc4ccc(F)cc4)n3)nc2)CC1`
Result: > 10 µM

Request: Please give the measured IC50 for this compound: `Cc1ccccc1Nc1nc(Nc2ccc(N3CCCN(C)CC3)cc2)ncc1Cl`
Result: 0.88 µM

Request: // returns reported IC50 for input `CN1CCN(c2ccc(Nc3ncc(Cl)c(NCCc4ccccc4)n3)nc2)CC1`
Result: > 10 µM

Request: I have this compound here, `Cc1ccccc1Nc1nc(Nc2ccc(N3CCNCC3)cn2)ncc1Cl` , and I need its recorded IC50.
Result: 0.114 µM

Request: Any idea what its IC50 is? The compound is `COc1ccc(CCNc2nc(Nc3ccc(N4CCN(C)CC4)cn3)ncc2Cl)cc1`
Result: > 10 µM

Request: Entry `CN1CCN(c2ccc(Nc3ncc(Cl)c(NCc4ccc(C(F)(F)F)cc4)n3)nc2)CC1` : reported IC50 = ?
Result: > 10 µM
